Data origin: patent US11944626B2

target_entity: UniProt P05091
Sequence (P05091 18-517): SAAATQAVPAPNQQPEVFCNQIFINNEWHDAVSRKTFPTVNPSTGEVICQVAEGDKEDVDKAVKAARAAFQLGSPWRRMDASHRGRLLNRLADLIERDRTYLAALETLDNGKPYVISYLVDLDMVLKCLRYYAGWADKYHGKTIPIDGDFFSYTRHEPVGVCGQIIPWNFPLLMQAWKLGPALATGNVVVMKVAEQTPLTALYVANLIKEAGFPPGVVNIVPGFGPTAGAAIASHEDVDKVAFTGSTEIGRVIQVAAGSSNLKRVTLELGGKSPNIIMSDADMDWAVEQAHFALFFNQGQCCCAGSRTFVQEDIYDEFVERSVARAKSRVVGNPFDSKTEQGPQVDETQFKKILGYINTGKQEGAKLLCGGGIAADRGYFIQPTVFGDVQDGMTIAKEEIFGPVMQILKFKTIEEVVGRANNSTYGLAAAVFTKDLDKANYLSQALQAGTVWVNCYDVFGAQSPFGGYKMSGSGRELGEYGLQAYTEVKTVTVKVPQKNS
assay_overview: Inhibition of ALDH isoenzymes (NAD(P)H formation at 340 nm, purified recombinant enzyme);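 also: run at 25 °C, started by adding substrate after 2 min preincubation, with 100-200 nM ALDH2, 200 µM NAD+, 100 µM propionaldehyde, 1% DMSO in BES buffer pH 7.5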
Format: biochemical
condition_info: compound at 20 μM; read-out: ALDH2 % Control at 20 μM
measured_endpoint: remaining activity at 20 µM

Can you share its remaining activity at 20 µM? I mean this compound: CCn1cc2c(=O)n(-c3ccccc3)c(SCc3cccc(F)c3)nc2n1 [Example 15]
98%

Can you share its remaining activity at 20 µM? I mean this compound: COc1cccc(CSc2nc3c(cnn3C)c(=O)n2-c2ccccc2)c1 [Example 54]
88%

Can you share its remaining activity at 20 µM? I mean this compound: Cc1ccccc1-n1c(SCc2cccc(F)c2)nc2n[nH]c(C)c2c1=O [Example 39]
95%

Can you share its remaining activity at 20 µM? I mean this compound: Cn1ncc2c(=O)n(-c3ccccc3O)c(SCc3cccc(F)c3)nc21 [Example 33]
88%

Can you share its remaining activity at 20 µM? I mean this compound: Cn1ncc2c(=O)n(-c3ccccc3)c(SCc3ccccc3)nc21 [Example 55]
91%

Can you share its remaining activity at 20 µM? I mean this compound: CC1(Cn2cc3c(=O)n(-c4ccccc4)c(SCc4cccc(F)c4)nc3n2)COC1 [Example 67]
97%

Can you share its remaining activity at 20 µM? I mean this compound: Cn1ncc2c(=O)n(-c3ccccc3)c(SCc3cccc(C(=O)C(F)(F)F)c3)nc21 [Example 57]
100%

Can you share its remaining activity at 20 µM? I mean this compound: CC(Sc1nc2c(cnn2C)c(=O)n1-c1ccccc1)c1cccnc1 (stereo not drawn) [Example 80]
96%

Can you share its remaining activity at 20 µM? I mean this compound: Cn1ncc2c(=O)n(C3CCC3)c(SCc3cccc(F)c3)nc21 [Example 46]
96%

====

target_entity: ALDH1A2 (Homo sapiens, UniProt O94788)
Sequence (O94788 whole entry): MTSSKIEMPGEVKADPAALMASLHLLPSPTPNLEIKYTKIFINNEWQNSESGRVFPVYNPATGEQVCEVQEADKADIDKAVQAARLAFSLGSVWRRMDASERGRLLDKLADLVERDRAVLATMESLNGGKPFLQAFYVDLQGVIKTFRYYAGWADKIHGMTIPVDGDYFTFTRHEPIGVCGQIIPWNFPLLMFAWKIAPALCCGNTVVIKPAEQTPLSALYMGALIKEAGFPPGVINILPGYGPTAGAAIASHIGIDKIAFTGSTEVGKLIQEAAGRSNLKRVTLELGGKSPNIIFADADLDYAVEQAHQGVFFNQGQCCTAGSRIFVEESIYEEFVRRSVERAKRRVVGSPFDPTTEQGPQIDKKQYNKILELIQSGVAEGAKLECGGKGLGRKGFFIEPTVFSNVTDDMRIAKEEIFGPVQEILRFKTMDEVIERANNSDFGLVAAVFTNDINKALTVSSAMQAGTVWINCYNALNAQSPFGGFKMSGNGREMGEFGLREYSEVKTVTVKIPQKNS
assay_overview: Inhibition of ALDH isoenzymes (NAD(P)H formation at 340 nm, purified recombinant enzyme)
Format: biochemical
condition_info: compound at 20 μM; read-out: ALDH1A2 % Control at 20 μM
measured_endpoint: remaining activity at 20 µM (%)
Give just the number in %; leave the unit off.

Can you share its remaining activity at 20 µM? I mean this molecule: `Cn1ncc2c(=O)n(-c3ccccc3)c(COCc3cccc(F)c3)nc21`
52

Can you share its remaining activity at 20 µM? I mean this molecule: `Cc1ccccc1-n1c(SCc2cccc(F)c2)nc2c(cnn2C2COC2)c1=O`
31

Can you share its remaining activity at 20 µM? I mean this molecule: `Cn1ncc2c(=O)n(-c3ccccc3)c(CNCc3cccc(F)c3)nc21`
77

Can you share its remaining activity at 20 µM? I mean this molecule: `Cc1ccccc1-n1c(SCc2cccc(F)c2)nc2n[nH]c(C)c2c1=O`
93

Can you share its remaining activity at 20 µM? I mean this molecule: `Cc1ccccc1-n1c(OCc2cccc(F)c2)nc2c(cnn2C)c1=O`
72

Can you share its remaining activity at 20 µM? I mean this molecule: CC(Sc1nc2nn(C3COC3)cc2c(=O)n1-c1ccccc1)c1ccccc1 (stereo not shown)
0

Can you share its remaining activity at 20 µM? I mean this molecule: `Cn1ncc2c(=O)n(-c3ccccc3)c(COc3cccc(F)c3)nc21`
65

Can you share its remaining activity at 20 µM? I mean this molecule: `Cn1ncc2c(=O)n(-c3ccccc3)c(/C=C/c3cccc(F)c3)nc21`
15

Can you share its remaining activity at 20 µM? I mean this molecule: `O=c1c2cn(CC3CNC3)nc2nc(SCc2cccc(F)c2)n1-c1ccccc1`
14

Can you share its remaining activity at 20 µM? I mean this molecule: `Cn1ncc2c(=O)n(-c3ccccc3)c(SC3CCCCC3)nc21`
34
